MEASURED_TARGET: T1, PC5/6 (UniProt Q92824-2 115-913, limits assumed)
T1 sequence (looked up): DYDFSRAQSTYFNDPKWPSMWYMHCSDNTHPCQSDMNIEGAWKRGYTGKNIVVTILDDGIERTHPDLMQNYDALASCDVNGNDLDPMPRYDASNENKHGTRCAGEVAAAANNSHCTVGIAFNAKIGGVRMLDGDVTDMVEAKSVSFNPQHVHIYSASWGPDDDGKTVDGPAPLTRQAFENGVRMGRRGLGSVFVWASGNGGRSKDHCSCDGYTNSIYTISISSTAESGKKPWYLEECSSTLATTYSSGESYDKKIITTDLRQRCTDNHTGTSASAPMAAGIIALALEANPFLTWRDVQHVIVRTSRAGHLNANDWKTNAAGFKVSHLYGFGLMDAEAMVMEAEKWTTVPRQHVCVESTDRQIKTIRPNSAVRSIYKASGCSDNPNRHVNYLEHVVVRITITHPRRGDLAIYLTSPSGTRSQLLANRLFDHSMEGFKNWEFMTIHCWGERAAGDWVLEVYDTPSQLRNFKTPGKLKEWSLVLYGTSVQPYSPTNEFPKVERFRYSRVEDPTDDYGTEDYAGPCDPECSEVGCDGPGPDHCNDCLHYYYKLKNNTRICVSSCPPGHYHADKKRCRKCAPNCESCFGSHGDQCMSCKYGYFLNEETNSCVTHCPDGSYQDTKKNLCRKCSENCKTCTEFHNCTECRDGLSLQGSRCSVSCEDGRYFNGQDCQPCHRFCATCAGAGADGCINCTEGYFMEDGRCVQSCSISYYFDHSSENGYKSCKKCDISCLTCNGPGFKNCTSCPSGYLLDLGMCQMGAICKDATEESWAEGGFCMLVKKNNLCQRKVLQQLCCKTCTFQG
RUN_DESCRIPTION: enzyme inhibition assay, fluorogenic substrate PyrRTKR-MCA
pKi: −log10 of the molar value. No end group written: not given here.
PROPERTY_NAME: pKi

[[record]]
binder = "LLLLRVKR-NH2 (also called 4 Leu; Multi-Leu (ML)) [LLLLRVKR-NH2]"
property_name = "pKi"
result = 6.61

